test: gMDCK (P-gp knockout MDCK) monolayer permeability assay; settings: dog, MDCK, Lenalidomide Permeability in gMDCK Cells, FaSSIF, 250 uM
assay-endpoint: Papp at 3 h, 250 µM (×10⁻⁶ cm/s)
One number for each entry, in ×10⁻⁶ cm/s.

Give Papp at 3 h, 250 µM for the following molecule: Nc1cccc2c1CN(C1CCC(=O)NC1=O)C2=O (stereo not shown) [Lenalidomide]
0.17

###

assay: gMDCK (P-gp knockout MDCK) monolayer permeability assay; conditions: dog, MDCK, pH 7.4, Lenalidomide Permeability in gMDCK Cells, typical assay conditions, 250 uM
assay-endpoint: Papp at 3 h, 250 µM (nm/s)
Answers are plain numbers, in nm/s.

Give Papp at 3 h, 250 µM for the following compound: Nc1cccc2c1CN(C1CCC(=O)NC1=O)C2=O (stereo not shown) [Lenalidomide]
2.4
